- Tested on: MAGI-CCR5 cells, HIV-1 Ba-L, beta-gal luminescence, 48 h
- experiment.notes: antiviral activity against R5 HIV-1 in MAGI cells – MAGI-CCR5 cells, HIV-1 Ba-L, 5% and 10% serum, set 2, dose response (AID 2788)
- condition.set: measured here: IC50 in 10% serum
pIC50: −log10 of the molar value.

compound	modifier	pIC50
O=C(O)c1cc(NN=Cc2ccc(-c3ccccc3)cc2)ccc1Cl	<	4.00
CS(=O)(=O)C1=NSC2=NC(=O)/C(=C\c3cccn3-c3ccc(Cl)cc3)C(=N)N21	<	4.00
Cc1ccc(-n2cccc2/C=C2/C(=N)N3C(=NC2=O)SN=C3S(C)(=O)=O)cc1Cl	=	4.22
COc1ccc(C(=O)Oc2ccc(C=NNc3ccc(Cl)c(C(=O)O)c3)cc2OC)cc1	=	4.09
Cc1ccc(S(=O)(=O)Oc2ccc(/C=C3/C(=N)N4C(=NC3=O)SN=C4S(C)(=O)=O)cc2)cc1	<	4.00
O=C(O)c1ccccc1C(=O)N(Cc1cccc(Oc2ccc(Cl)cc2)c1)[C@H]1CCCc2ccccc21	=	4.42
COc1ccc(OC)c(N2C(=O)/C(=C/c3ccco3)C(=O)NC2=S)c1	=	4.28
CC1(C)CC(=O)C2=C(C1)c1c(ccc3ccccc13)NC2c1cc([N+](=O)[O-])cc([N+](=O)[O-])c1O (centres undefined)	=	4.45
O=c1c(=Cc2cc([N+](=O)[O-])cc([N+](=O)[O-])c2O)sc2nc3ccccc3n12	<	4.00
O=C1NC(=S)N(c2ccc(F)cc2)C(=O)/C1=C/c1ccco1	=	4.31
CC(C)S(=O)(=O)C1=NSC2=NC(=O)/C(=C\c3ccc(-c4ccccc4)o3)C(=N)N21	=	4.36
CCS(=O)(=O)C1=NSC2=NC(=O)/C(=C\c3ccc(OS(=O)(=O)c4ccccc4)cc3)C(=N)N21	<	4.00
COc1ccccc1NS(=O)(=O)c1cccc(-n2c(O)c(C=Nc3ccccc3C(=O)O)c3ccccc3c2=O)c1	=	4.26
CS(=O)(=O)C1=NSC2=NC(=O)/C(=C\c3ccc(OS(=O)(=O)c4ccccc4)cc3)C(=N)N21	<	4.00

###

Reported pIC50 values are given for each entry in this list.
- System: MAGI-CCR5 cells, HIV-1 Ba-L, beta-gal luminescence, 48 h
- experiment.notes: antiviral activity against R5 HIV-1 in MAGI cells – MAGI-CCR5 cells, HIV-1 Ba-L, 5% and 10% serum, set 2, dose response (AID 2788)
- condition.set: measured here: IC50 in 10% serum
pIC50: −log10 of the molar value.
reported.metric: pIC50

smiles.entry	reported.metric	modifier	result.value
COc1cc(C=NNc2ccc(Cl)c(C(=O)O)c2)ccc1OC(=O)c1ccc(F)cc1	pIC50	<	4.00
COc1cc(C=NNc2ccc(Cl)c(C(=O)O)c2)ccc1OC(=O)c1ccccc1F	pIC50	<	4.00
Cc1cc(C)cc(-n2cccc2/C=C2/C(=N)N3C(=NC2=O)SN=C3S(C)(=O)=O)c1	pIC50	=	4.25
Cc1ccc(-n2c(O)c(C=Nc3ccccc3-c3n[nH]c(=S)[nH]c3=O)c3ccccc3c2=O)c(C)c1	pIC50	=	4.64
CC(C)S(=O)(=O)C1=NSC2=NC(=O)/C(=C\c3ccc(-c4cccc(C(=O)O)c4)o3)C(=N)N21	pIC50	=	4.30
